system: Plasma; experiment: Anticoagulant activity in human plasma assessed as prothrombin time at 60 ug/ml; assay type: functional
PT less than 50 s is Y; PT greater than or equal to 50 s is N.

Check out these entries, answers already filled in.
CC1=C(C(=O)NNC(N)=S)C(c2ccc(N(C)C)cc2)C(C(=O)NNC(N)=S)=C(C)N1 : Y
CC1=C(C(=O)NNC(N)=S)C(c2ccc(O)cc2)C(C(=O)NNC(N)=S)=C(C)N1 : N
CC1=C(C(=O)NNC(N)=S)C(c2ccccc2)C(C(=O)NNC(N)=S)=C(C)N1 : Y
CC1=C(C(=O)NNC(N)=S)C(c2ccco2)C(C(=O)NNC(N)=S)=C(C)N1 : N
CC1=C(C(=O)NNC(N)=S)C(c2ccc(Cl)cc2)C(C(=O)NNC(N)=S)=C(C)N1 : Y
CC1=C(C(=O)NNC(N)=S)C(c2ccc([N+](=O)[O-])cc2)C(C(=O)NNC(N)=S)=C(C)N1 : N

Request: Quick check: does COc1ccc(C2C(C(=O)NNC(N)=S)=C(C)NC(C)=C2C(=O)NNC(N)=S)cc1 have PT under 50 s?
Response: N
